Each item that follows carries a reported AUC(0-t).
experiment: Oral pharmacokinetics in male BALB/c mice; format: in vivo; conditions: mouse, PO 10 mg/kg, plasma, mean ± SD
Quick note: give the figure in ng·h/mL, leave out the unit.

Below, 2 compounds whose answers are already recorded.
In [3]: df
Out[3]:
                                   compound  value_reported
0  C[C@@H]1Cc2ccccc2N1C(=O)Nc1ccc2c(c1)CN(C1CCC(=O)NC1=O)C2=O (stereo partly drawn) [Compound 102]             889
1  COCC1c2ccc(C3CC3)cc2CN1C(=O)Nc1ccc2c(c1)CN(C1CCC(=O)NC1=O)C2=O (stereo not drawn) [Compound 335]           13300

Proceed to the following item.
Specify measured AUC(0-t) for COC[C@@H]1Cc2ccccc2N1C(=O)Nc1ccc2c(c1)CN(C1CCC(=O)NC1=O)C2=O (stereo partly drawn) [Compound 288] . 29600

meta.source: patent US20250171420A1
